# System: EIF2AK1
# Set-up: species or system human, MV4-11 + K-562 + COLO205 + SK-N-BE2 + OVCAR-8
# experimentalSetup: read-out: apparent Kd; compound concentrations:100 nM and 1000 nM (sheet 'Samples'); n = 1
Quick list: potency estimated from few doses per entry.
readoutKind: potency estimated from few doses (nM)

molecule | readoutKind | val
CCN1CCN(CCCC(=O)Nc2n[nH]c3nc(-c4ccc(O)cc4)c(Br)cc23)CC1 | potency estimated from few doses | 201
COc1ccc(-c2oc3ncnc(N)c3c2-c2ccc(OC)cc2)cc1 | potency estimated from few doses | 2270
Cn1c(=O)c(-c2ccccc2Cl)cc2cnc(NC3CCOCC3)nc21 | potency estimated from few doses | 1090
O=C(Nc1n[nH]c2nc(-c3ccc(O)cc3)c(Br)cc12)C1CC1 | potency estimated from few doses | 517
C[C@@H](c1ccccc1)[C@@H](C(=O)Nc1ccc(I)cc1F)N1C(=O)N[C@H](c2ccc(OC[C@H](O)CO)cc2)C1=O | potency estimated from few doses | 1390
CCn1c(-c2nonc2N)nc2c(C#CC(C)(C)O)nc(O[C@@H](CN)c3ccccc3)cc21.O=C(O)C(F)(F)F [GSK1007102B] | potency estimated from few doses | 996
CCN(CC)CCOc1ccc(Nc2ncc3cc(-c4c(Cl)cccc4Cl)c(=O)n(C)c3n2)cc1 | potency estimated from few doses | 802
Cc1cccc(CC(=O)N2CCc3c2ccc(-c2cn(C)c4ncnc(N)c24)c3F)n1 | potency estimated from few doses | 751
